Data origin: the supplement of paper PMC9942255

- System: Bacillus subtilis DB104 (SP-AmyQ fusion secretion)
- procedure-details: AmyQ secretion efficiency, weighted average sort bin (1 = best secretion, 10 = worst) (bin number (weighted average, 1-10)); higher = lower secretion efficiency
Each entry below lists one item and its recorded AmyQ secretion efficiency value.
parameter-measured: AmyQ secretion efficiency

[[record]]
sequence_record = "MKSKWMSGLLLVAVGFSFTQVMVHAGDE"
parameter_measured = "AmyQ secretion efficiency"
result = 5.94

[[record]]
sequence_record = "MKKFLLVSFVLFFALSTGITGVQAAPA"
parameter_measured = "AmyQ secretion efficiency"
result = 2.2

[[record]]
sequence_record = "MMGIMIFLTSFMLLAMTGQTALAKDV"
parameter_measured = "AmyQ secretion efficiency"
result = 3.75

[[record]]
sequence_record = "MFKKHTISLLIIFLLASAVLAKPTEAHTV"
parameter_measured = "AmyQ secretion efficiency"
result = 2.68

[[record]]
sequence_record = "MKKAFILSAAAAVGLFTFIAVSVASAKEL"
parameter_measured = "AmyQ secretion efficiency"
result = 3.67

[[record]]
sequence_record = "MKNMSCKLVVSVTLFFSFLTIGPLAHWQNS"
parameter_measured = "AmyQ secretion efficiency"
result = 5.85

[[record]]
sequence_record = "MKKKSQQQGGVSAVVGSSMAAAPAEAKTI"
parameter_measured = "AmyQ secretion efficiency"
result = 7.9


* * *

Measured AmyQ secretion efficiency of individual entries
- Tested on: Bacillus subtilis DB104 (SP-AmyQ fusion secretion)
- procedure-details: AmyQ secretion efficiency, weighted average sort bin (1 = best secretion, 10 = worst) (bin number (weighted average, 1-10)); higher = lower secretion efficiency
parameter-measured: AmyQ secretion efficiency

[[record]]
sequence_record = "MKSKGSIMACLILFSFTITTFINTETISPFSN"
target_desc = "Bacillus subtilis DB104 (SP-AmyQ fusion secretion)"
result = 7.51

[[record]]
sequence_record = "MKKRINLIGFLVLVPALIMSGITLIEANKK"
target_desc = "Bacillus subtilis DB104 (SP-AmyQ fusion secretion)"
result = 7.4

[[record]]
sequence_record = "MKTKTLFIFSAILTLSIFASTITLSAFAPNETFAQTA"
target_desc = "Bacillus subtilis DB104 (SP-AmyQ fusion secretion)"
result = 3.01

[[record]]
sequence_record = "MKKVLMAFIICLSLILSVLAAPPSGVKAESV"
target_desc = "Bacillus subtilis DB104 (SP-AmyQ fusion secretion)"
result = 1.85

[[record]]
sequence_record = "MTGWLIIAVSLAIAIVLFMYTKGEAKAAGM"
target_desc = "Bacillus subtilis DB104 (SP-AmyQ fusion secretion)"
result = 7.08

[[record]]
sequence_record = "MKKWMITIAMLKKAGIALFVFISPLKSHKT"
target_desc = "Bacillus subtilis DB104 (SP-AmyQ fusion secretion)"
result = 6.51

[[record]]
sequence_record = "MKRKKMSGLLLVAVGFSFTQVMVHAGET"
target_desc = "Bacillus subtilis DB104 (SP-AmyQ fusion secretion)"
result = 6.25

[[record]]
sequence_record = "MFKKLKRRKSALTFSLSLVLPLDGHAKAQEV"
target_desc = "Bacillus subtilis DB104 (SP-AmyQ fusion secretion)"
result = 6.09

[[record]]
sequence_record = "MRMLWRSLALCGLALTLAPCMQAAEP"
target_desc = "Bacillus subtilis DB104 (SP-AmyQ fusion secretion)"
result = 1.94

[[record]]
sequence_record = "MKRRKNVCLTALLSVLLVAGSVPFHAEAKKP"
target_desc = "Bacillus subtilis DB104 (SP-AmyQ fusion secretion)"
result = 2.59

[[record]]
sequence_record = "MLKKIALTLCPAIVGSLLFFTAPASMHVS"
target_desc = "Bacillus subtilis DB104 (SP-AmyQ fusion secretion)"
result = 4.09

[[record]]
sequence_record = "MKKAFILSAAAAVGLFTFGGVQQASGKEL"
target_desc = "Bacillus subtilis DB104 (SP-AmyQ fusion secretion)"
result = 3.67

[[record]]
sequence_record = "MRPVFPLILSAVLFLSCFFGARQTEISASKR"
target_desc = "Bacillus subtilis DB104 (SP-AmyQ fusion secretion)"
result = 2.64

[[record]]
sequence_record = "MRPKRPRKLILSAVLFLSCFFGARQTEASASKR"
target_desc = "Bacillus subtilis DB104 (SP-AmyQ fusion secretion)"
result = 4.56

[[record]]
sequence_record = "MRNLTKTSLLLAGLCTAAQMVFVTHCSAEES"
target_desc = "Bacillus subtilis DB104 (SP-AmyQ fusion secretion)"
result = 2.79

[[record]]
sequence_record = "MKTLRTLCVLMILSGVIFFGLKIDVKDI"
target_desc = "Bacillus subtilis DB104 (SP-AmyQ fusion secretion)"
result = 6.52

[[record]]
sequence_record = "MKKKQVMLALTAAAGLGLTALHSAPADKAAPL"
target_desc = "Bacillus subtilis DB104 (SP-AmyQ fusion secretion)"
result = 5.48

[[record]]
sequence_record = "MKKVLMAFIICLSLILSVLAAPPSGPKAESV"
target_desc = "Bacillus subtilis DB104 (SP-AmyQ fusion secretion)"
result = 3.78

[[record]]
sequence_record = "MKRLFMKASLVLFAVVFVFAVKGAPMKAETH"
target_desc = "Bacillus subtilis DB104 (SP-AmyQ fusion secretion)"
result = 1.95

[[record]]
sequence_record = "MKKLLAAGIIGLLTVSIASPSFGAEK"
target_desc = "Bacillus subtilis DB104 (SP-AmyQ fusion secretion)"
result = 4.39

[[record]]
sequence_record = "MRKYTTKGYQKTYFLSVLSGGHHESKAFPV"
target_desc = "Bacillus subtilis DB104 (SP-AmyQ fusion secretion)"
result = 8.3

[[record]]
sequence_record = "MLKKKWMVGLLAGCLAAGGFSYNAFQTEN"
target_desc = "Bacillus subtilis DB104 (SP-AmyQ fusion secretion)"
result = 6.95

[[record]]
sequence_record = "MKLWMRKTLVVLFTIVTFGLVSPPAAHMADKP"
target_desc = "Bacillus subtilis DB104 (SP-AmyQ fusion secretion)"
result = 2.08

[[record]]
sequence_record = "MIAYFGKCLLLVTIMFLGVLFGMQQYNHG"
target_desc = "Bacillus subtilis DB104 (SP-AmyQ fusion secretion)"
result = 6.5

[[record]]
sequence_record = "MKLSVKIAGVLTVAAAAMTAGMYATAKGN"
target_desc = "Bacillus subtilis DB104 (SP-AmyQ fusion secretion)"
result = 5.78

[[record]]
sequence_record = "MKKVLMAFIICLSLILSVLAAPPSGSKAESV"
target_desc = "Bacillus subtilis DB104 (SP-AmyQ fusion secretion)"
result = 3.67

[[record]]
sequence_record = "MKQIMIFLTSFMMTGQTALAKDV"
target_desc = "Bacillus subtilis DB104 (SP-AmyQ fusion secretion)"
result = 3.81

[[record]]
sequence_record = "MMLAKRVSALTPSTTLAITAKAKEL"
target_desc = "Bacillus subtilis DB104 (SP-AmyQ fusion secretion)"
result = 7.47


* * *

- Test system: Bacillus subtilis DB104 (SP-AmyQ fusion secretion)
- procedure-details: AmyQ secretion efficiency, weighted average sort bin (1 = best secretion, 10 = worst) (bin number (weighted average, 1-10)); higher = lower secretion efficiency
Label Met when AmyQ secretion efficiency is at or above 6; anything below gets Not met.

[[record]]
sequence_record = "MKKIWIGMLAAAVLLLMVPKVSPAVPSGFSLADAA"
class_name = "Met"

[[record]]
sequence_record = "MKRLFMKYKRYQKQVVFVFAVKGAPAKAETH"
class_name = "Met"

[[record]]
sequence_record = "MKRIRIPMTLALGAALTIAPLKRKASAEEN"
class_name = "Met"

[[record]]
sequence_record = "MLKKIALTLCPAIVGSLLFFTAPASDHVS"
class_name = "Not met"

[[record]]
sequence_record = "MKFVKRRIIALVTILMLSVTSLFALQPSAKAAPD"
class_name = "Not met"

[[record]]
sequence_record = "MKRMIVRMTLPLLIVCLAFSKDSASARAASE"
class_name = "Not met"

[[record]]
sequence_record = "MKKKQVMLALTAAAGLGLTALHSAPACKAAPL"
class_name = "Not met"

[[record]]
sequence_record = "MKKQIITATTAVVLGSTLFAGAASIQSI"
class_name = "Not met"

[[record]]
sequence_record = "MKKRFSLIMMTGLLFGLTEEEAFAAEK"
class_name = "Not met"


* * *

Entries and their measured AmyQ secretion efficiency follow.
- System: Bacillus subtilis DB104 (SP-AmyQ fusion secretion)
- procedure-details: AmyQ secretion efficiency, weighted average sort bin (1 = best secretion, 10 = worst) (bin number (weighted average, 1-10)); higher = lower secretion efficiency
parameter-measured: AmyQ secretion efficiency

[[record]]
sequence_record = "MKKRFFGPIILAFILFAGAIAIEE"
numeric_result = 6.41

[[record]]
sequence_record = "MLKKIALTLCPAIVGSLLFFTAPASAHKK"
numeric_result = 1.72

[[record]]
sequence_record = "MGCTMMLLFSAIASFPVSAQAKDQ"
numeric_result = 6.4

[[record]]
sequence_record = "MGLGKKLSVAVAASFMSLSISLPGVQLAEG"
numeric_result = 4.12

[[record]]
sequence_record = "MNLFLIAPMLLSAASLAFFAMSGSAQAAAY"
numeric_result = 5.75

[[record]]
sequence_record = "MKRLFMKASLVLFAVVFVFAVKGAPAKAADD"
numeric_result = 3.6

[[record]]
sequence_record = "MKKAFLVFLSVVLVTTVFLVKQQESVHQAKQL"
numeric_result = 6.34

[[record]]
sequence_record = "MLTFLWMVGLLAGCLAAGGFSYNAFATEN"
numeric_result = 7.84

[[record]]
sequence_record = "MTGSSVITCVMAASLTLGSLLPAGYATAKED"
numeric_result = 4.28

[[record]]
sequence_record = "MLCVMMLLFSAIASFPVSKQAKDQ"
numeric_result = 7.19

[[record]]
sequence_record = "MRKVLTMCFLGLILFVPTALADNS"
numeric_result = 2.17

[[record]]
sequence_record = "MFKKLLLATSALTPLDGHAKAQEV"
numeric_result = 5.8

[[record]]
sequence_record = "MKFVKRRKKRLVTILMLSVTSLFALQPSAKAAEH"
numeric_result = 2.78

[[record]]
sequence_record = "MTKKAWFLPLVCVLLISGWLAPAASGSAQTT"
numeric_result = 2.23

[[record]]
sequence_record = "MKKELLASLVLCLSLKRLVSTNKVFAATT"
numeric_result = 7.51

[[record]]
sequence_record = "MSTFLIGAGVAAVILSGWFIADHQTHSQEM"
numeric_result = 6.2

[[record]]
sequence_record = "MKKWIYGGQTGKIAGIGGFSVHAASS"
numeric_result = 6.97

[[record]]
sequence_record = "MKKAAAVLLSLGLVFGFSYGAGHVAEKKTK"
numeric_result = 6.23

[[record]]
sequence_record = "MNKLKRLSMLTVMIASVFIFSSHALAAQE"
numeric_result = 1.11

[[record]]
sequence_record = "MKSKGSIMACLILFSFTITRKKRKKTISAFSN"
numeric_result = 7.38

[[record]]
sequence_record = "MRKRLFRVCFLAALIMAFTLPNSVYAQKP"
numeric_result = 2.73

[[record]]
sequence_record = "MRKKLKWLSFLLGFIILLFLFDEEEDDFSNNDS"
numeric_result = 5.38

[[record]]
sequence_record = "MKKWIYVVLVLSIAGIGGFSLHAASS"
numeric_result = 6.87

[[record]]
sequence_record = "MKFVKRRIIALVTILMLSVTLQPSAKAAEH"
numeric_result = 3.15

[[record]]
sequence_record = "MPYLKRVLLLLVTGLFMSLFAVTATASYQTG"
numeric_result = 1.77

[[record]]
sequence_record = "MKSCKQLIVCSLAAILLLIPSVAFAADS"
numeric_result = 2.83

[[record]]
sequence_record = "MKRLCLWFTVFSPGKALGAVD"
numeric_result = 7.52

[[record]]
sequence_record = "MNLRKILLSSALSLGMLVSAAPVLARKR"
numeric_result = 5.51

[[record]]
sequence_record = "MKSKWMSGLLLVAVGFSFTQVMSHAGET"
numeric_result = 6.67

[[record]]
sequence_record = "MKKTIMSFKRKKKKSTTAFGAHASAKEI"
numeric_result = 6.45

[[record]]
sequence_record = "MKRIRIPMTLALGAALTIAPLSFSSAEEN"
numeric_result = 4.73

[[record]]
sequence_record = "MKKTIMSFVAVAALSTTAFGAHSSAKEI"
numeric_result = 3.37

[[record]]
sequence_record = "MKRIRIPMTLALGAALTIAPLSFASAATD"
numeric_result = 2.9

[[record]]
sequence_record = "MKKWLIIAVSLAIAIVLFMAFKGEAKAAGM"
numeric_result = 3.57

[[record]]
sequence_record = "MKKAFILSAAAAVGLFTFGGVQQASMKEL"
numeric_result = 5.04

[[record]]
sequence_record = "MNFKKTVVSALSISASVSGVASAHEI"
numeric_result = 5.11

[[record]]
sequence_record = "MAIIIAIIAAVIVIAALITFNVPNASPG"
numeric_result = 6.07

[[record]]
sequence_record = "MKWCSICCAAVLLAGGAAQAEAV"
numeric_result = 3.57

[[record]]
sequence_record = "MKRKLLSSLAISALSLGLLVSAPTASFADDE"
numeric_result = 5.75

[[record]]
sequence_record = "MKRIRIPMTLRKKRALTIAPLSFASAEEN"
numeric_result = 7.44

[[record]]
sequence_record = "MNFKKTTSIVVSALSISALALSVSGVASAHEI"
numeric_result = 3.35

[[record]]
sequence_record = "MRNLTKFLLLLAFLCMAAQMVFVTHASAEES"
numeric_result = 3.58

[[record]]
sequence_record = "MKLSVKIAGVLTVAAAAMEEKMYATAKGN"
numeric_result = 7.66

[[record]]
sequence_record = "MKKLLAAGIIGLLTVSIASPHFAAEK"
numeric_result = 7.4

[[record]]
sequence_record = "MKKWMAGLFLAAAVLLCLMVPQQIQGKKK"
numeric_result = 4.71

[[record]]
sequence_record = "MIAYFGKCRKRRKRMFLGVLFGMQQANHG"
numeric_result = 7.55

[[record]]
sequence_record = "MKKTIMSFVAVAALSTTAFGAHASYKEI"
numeric_result = 7

[[record]]
sequence_record = "MPYLKRVLLLLVTGLFMSLFAVTATASARRR"
numeric_result = 7.69

[[record]]
sequence_record = "MHLIRAKKRKCRAVVLIAGCRFNEDQHQAEGENT"
numeric_result = 5.77

[[record]]
sequence_record = "MKRSIFITCLLITLLTMGGMIASPASAAGT"
numeric_result = 2.08

[[record]]
sequence_record = "MKWMCSICCAAVLLAGGAAQSEAV"
numeric_result = 4.64

[[record]]
sequence_record = "MKRMIVRMTLPLLIVCLAFSSFSASTRAASE"
numeric_result = 2.26

[[record]]
sequence_record = "MNFKKTVVSALSISALALSVSGVASARRK"
numeric_result = 6.94

[[record]]
sequence_record = "MKKVLMAFIICLSLILSVLAAPPSGAKQESV"
numeric_result = 2.57

[[record]]
sequence_record = "MKKWMITIAMLILAGIALFVFISPLKGHKT"
numeric_result = 6.29

[[record]]
sequence_record = "MSMVMLATALFLGLTPAGANAADL"
numeric_result = 5.37

